tested on: HSP90; test: concomitant HSP90-streptavidin binding in live K562 cells; type: cell-based; settings: live cells, 100 μM, 4 h
ASSAY_READOUT: HSP90-streptavidin binding with K562 cells

Completed entries (count: 5):
{"columns": ["STRUCTURE_AS_SMILES", "MEAS_VALUE"],
 "data": [
  ["CC(C)N(CCCn1c(Sc2cc3c(cc2I)OCO3)nc2c(N)ncnc21)C(=O)CCCCCNC(=O)CCCC[C@@H]1SC[C@@H]2NC(=O)N[C@@H]21", "No"],
  ["Nc1ncnc2c1nc(Sc1cc3c(cc1I)OCO3)n2CCCNC(=O)CCOCCOCCOCCOCCNC(=O)CCCC[C@@H]1SC[C@@H]2NC(=O)N[C@@H]21", "Yes"],
  ["CC(C)N(CCCn1c(Sc2cc3c(cc2I)OCO3)nc2c(N)ncnc21)C(=O)CCCC[C@@H]1SC[C@@H]2NC(=O)N[C@@H]21", "No"],
  ["Nc1ncnc2c1nc(Sc1cc3c(cc1I)OCO3)n2CCCNCCOCCOCCOCCNC(=O)CCCC[C@@H]1SC[C@@H]2NC(=O)N[C@@H]21", "No"],
  ["Nc1ncnc2c1nc(Sc1cc3c(cc1I)OCO3)n2CCCNC(=O)CCCC[C@@H]1SC[C@@H]2NC(=O)N[C@@H]21", "No"]
]}

Now look at this entry.
What does the record list as HSP90-streptavidin binding with K562 cells for `Nc1ncnc2c1nc(Sc1cc3c(cc1I)OCO3)n2CCCNC(=O)CCCCCNC(=O)CCCCCNC(=O)CCCC[C@@H]1SC[C@@H]2NC(=O)N[C@@H]21` ?
Yes
